The reader will find reported pIC50 values listed item by item below.
- SYSTEM_UNDER_TEST: active p38 alpha enzyme (Upstate Biotechnology) (Homo sapiens, UniProt Q16539)
- Construct: purchased Upstate Biotechnology
- Sequence (Q16539 whole entry): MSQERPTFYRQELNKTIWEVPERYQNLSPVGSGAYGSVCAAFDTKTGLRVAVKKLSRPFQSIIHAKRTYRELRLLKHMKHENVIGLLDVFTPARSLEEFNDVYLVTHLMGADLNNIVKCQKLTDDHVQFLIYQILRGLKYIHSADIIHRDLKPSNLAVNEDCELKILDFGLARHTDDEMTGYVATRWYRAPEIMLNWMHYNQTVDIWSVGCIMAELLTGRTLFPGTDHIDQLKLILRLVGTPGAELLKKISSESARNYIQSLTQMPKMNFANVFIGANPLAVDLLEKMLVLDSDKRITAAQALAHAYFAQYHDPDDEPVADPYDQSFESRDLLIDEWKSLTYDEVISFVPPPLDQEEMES
- PROTOCOL_DESCRIPTION: p38α biochemical assay (ATP turnover, luminescent detection, Cambrex PKlight)
- MEASUREMENT_PARAMETERS: p38α biochemical assay, Table 1 Biological Activity
pIC50: −log10 of the molar value.
MEASURED_PARAMETER: pIC50

>>> result("CC(C)NC(=O)c1csc(-c2oc(CNC(=O)c3ccc(OCc4ccccc4)cc3)nc2-c2ccc(F)cc2)n1")
"≥ 6.00"
>>> result("CC(C)NC(=O)c1csc(-c2c(-c3ccc(F)cc3)noc2CNC(=O)c2ccc(Cl)cc2[N+](=O)[O-])n1")
"< 6.00"
>>> result("Cc1ccccc1C(=O)N1CCN(Cc2nc(-c3ccc(F)cc3)c(-c3nc(C(=O)NC(C)C)cs3)o2)CC1")
"< 6.00"
>>> result("CC(C)NC(=O)c1csc(-c2c(-c3ccc(F)cc3)noc2CNC(=O)c2cc(F)c(F)cc2Cl)n1")
"< 6.00"
>>> result("CC(C)NC(=O)c1csc(-c2oc(CNC(=O)CC#N)nc2-c2ccc(F)cc2)n1")
"≥ 6.00"
>>> result("CC(C)NC(=O)c1csc(-c2oc(CN3CCN(C(=O)c4ccccc4-c4ccccc4)CC3)nc2-c2ccc(F)cc2)n1")
"≥ 6.00"
>>> result("CC(C)CC(NC(=O)OC(C)(C)C)C(=O)N1CCN(Cc2nc(-c3ccc(F)cc3)c(-c3nc(C(=O)NC(C)C)cs3)o2)CC1 (centres unmarked)")
"< 6.00"
>>> result("COc1ccc(Cl)cc1C(=O)N1CCN(Cc2nc(-c3ccc(F)cc3)c(-c3nc(C(=O)NC(C)C)cs3)o2)CC1")
"< 6.00"
>>> result("CC(C)NC(=O)c1csc(-c2oc(CNC(=O)c3ccc(C(C)C)cc3)nc2-c2ccc(F)cc2)n1")
"< 6.00"
>>> result("CC(C)NC(=O)c1csc(-c2c(-c3ccc(F)cc3)noc2CNC(=O)c2ccc(C=O)cc2)n1")
"< 6.00"
>>> result("CC(C)NC(=O)c1csc(-c2oc(CN3CCN(C(=O)c4cc(F)c(F)c(O)c4F)CC3)nc2-c2ccc(F)cc2)n1")
"< 6.00"
>>> result("COc1cc(C(=O)NCc2nc(-c3ccc(F)cc3)c(-c3nc(C(=O)NC(C)C)cs3)o2)c([N+](=O)[O-])cc1OC")
"≥ 6.00"
>>> result("CC(C)NC(=O)c1csc(-c2oc(CN3CCN(C(=O)c4ccc(F)cc4F)CC3)nc2-c2ccc(F)cc2)n1")
"< 6.00"
>>> result("CC(C)NC(=O)c1csc(-c2oc(CNC(=O)/C=C/c3ccccc3Cl)nc2-c2ccc(F)cc2)n1")
"< 6.00"
>>> result("CCCCCc1ccc(C(=O)NCc2nc(-c3ccc(F)cc3)c(-c3nc(C(=O)NC(C)C)cs3)o2)cc1")
"< 6.00"
>>> result("CC(C)NC(=O)c1csc(-c2c(-c3ccc(F)cc3)noc2CNC(=O)C(C)c2ccc(O)cc2)n1 (centres unmarked)")
"< 6.00"
>>> result("CC(C)NC(=O)c1csc(-c2oc(CNC(=O)C(C)c3cccc(C(=O)c4ccccc4)c3)nc2-c2ccc(F)cc2)n1 (centres unmarked)")
"< 6.00"
>>> result("Cc1ccc(SCC(=O)NCc2nc(-c3ccc(F)cc3)c(-c3nc(C(=O)NC(C)C)cs3)o2)cc1")
"< 6.00"
>>> result("CC(C)NC(=O)c1csc(-c2c(-c3ccc(F)cc3)noc2CNC(=O)c2cc(Cl)c(O)c(Cl)c2)n1")
"< 6.00"
>>> result("CC(C)NC(=O)c1csc(-c2oc(CNC(=O)c3cc(Cl)ccc3Cl)nc2-c2ccc(F)cc2)n1")
"≥ 6.00"
>>> result("CC(C)NC(=O)c1csc(-c2[nH]c(CN3CCNCC3)nc2-c2ccc(F)cc2)n1")
"≥ 6.00"
>>> result("CC(C)NC(=O)c1csc(-c2c(-c3ccc(F)cc3)noc2CNC(=O)c2cccc(Cl)c2Cl)n1")
"< 6.00"
>>> result("Cc1cccc(C(=O)NCc2nc(-c3ccc(F)cc3)c(-c3nc(C(=O)NC(C)C)cs3)o2)c1O")
"< 6.00"
>>> result("CC(C)NC(=O)c1csc(-c2oc(CN3CCN(C(=O)c4cc(F)c(F)cc4Cl)CC3)nc2-c2ccc(F)cc2)n1")
"< 6.00"
>>> result("CC(C)NC(=O)c1csc(-c2oc(CN3CCN(C(=O)c4ccc(C(C)(C)C)cc4)CC3)nc2-c2ccc(F)cc2)n1")
"< 6.00"
>>> result("CC(C)NC(=O)c1csc(-c2oc(CNC(=O)c3cc4ccccc4cc3O)nc2-c2ccc(F)cc2)n1")
"< 6.00"
>>> result("CC(C)NC(=O)c1csc(-c2oc(CNC(=O)c3cc(Br)ccc3Cl)nc2-c2ccc(F)cc2)n1")
"≥ 6.00"
>>> result("CC(C)NC(=O)c1csc(-c2oc(CNC(=O)c3ccc(Cl)nc3)nc2-c2ccc(F)cc2)n1")
"≥ 6.00"
>>> result("Cc1ccc(C(=O)NCc2nc(-c3ccc(F)cc3)c(-c3nc(C(=O)NC(C)C)cs3)o2)cc1Br")
"< 6.00"

---

Listing: pIC50 of selected compounds
- SYSTEM_UNDER_TEST: active p38 alpha enzyme (Upstate Biotechnology) (Homo sapiens)
- Construct: purchased Upstate Biotechnology
- PROTOCOL_DESCRIPTION: p38α biochemical assay (ATP turnover, luminescent detection, Cambrex PKlight)
- MEASUREMENT_PARAMETERS: p38α kinase; Table 1 Biological Activity
pIC50: −log10 of the molar value.
MEASURED_PARAMETER: pIC50

>>> result("Cc1nc(-c2ccc(F)cc2)c(-c2nc(C(=O)N(C)C(Cc3ccccc3)c3ccccc3)cs2)s1 (centres unmarked)")
"< 6.00"
>>> result("CCN(CC)CCNC(=O)c1csc(-c2sc(C)nc2-c2ccc(F)cc2)n1")
"≥ 6.00"
>>> result("COc1ccc(CNC(=O)c2csc(-c3sc(C)nc3-c3ccc(F)cc3)n2)cc1OC")
"≥ 6.00"
>>> result("CC(C)N(CCNC(=O)c1csc(-c2c(-c3ccc(F)cc3)n[nH]c2C2CCNCC2)n1)C(C)C")
"< 6.00"
>>> result("O=C(NC1CCCc2ccccc21)c1csc(-c2c(-c3ccc(F)cc3)n[nH]c2C2CCNCC2)n1 (centres unmarked)")
"< 6.00"
>>> result("Cc1nc(-c2ccc(F)cc2)c(-c2nc(C(=O)NCc3ccccc3OC(F)(F)F)cs2)s1")
"≥ 6.00"
>>> result("Cc1nc(-c2ccc(F)cc2)c(-c2nc(C(=O)NC3CCCc4ccccc43)cs2)s1 (centres unmarked) [Example 1701]")
"< 6.00"
>>> result("CC(C)NC(=O)c1csc(-c2c(-c3ccc(F)cc3)n[nH]c2C2CCN(C(=O)c3ccc(C(C)(C)C)cc3)CC2)n1")
"≥ 6.00"

---

# IC50 values compiled below
- SYSTEM_UNDER_TEST: active p38 alpha enzyme (Upstate Biotechnology) (Homo sapiens, UniProt Q16539)
- Construct: purchased Upstate Biotechnology
- PROTOCOL_DESCRIPTION: p38α biochemical assay (ATP turnover, luminescent detection, Cambrex PKlight)
- MEASUREMENT_PARAMETERS: p38α kinase; Table 1 Biological Activity
- Description: The p38α biochemical assay employed is based on measurement of total ATP turnover following enzyme incubation with substrate in the presence of ATP with the use of a luminescent detection reagent (Cambrex PKlight). […] The final volume was 7.5005 μL as prepared prepared from the addition of 5 ul of kinase reaction (p38 alpah+MapkapK2+ATP) with 0.0005 μL compound dissolved in DMSO, and 2.5 ul of the detection reagent. […] Assay is read using a Perkin Elmer Viewlux.
MEASURED_PARAMETER: IC50

>>> result("CC(C)NC(=O)c1csc(-c2c(-c3ccc(F)cc3)n[nH]c2C2CCN(C(=O)c3cc(F)c(F)cc3Cl)CC2)n1")
"> 1 µM"
>>> result("CC(C)NC(=O)c1csc(-c2c(-c3ccc(F)cc3)noc2CNCC#N)n1")
"≤ 1 µM"
>>> result("CC(C)NC(=O)c1csc(-c2oc(CNCc3ccc(N(C)C)cc3)nc2-c2ccc(F)cc2)n1")
"> 1 µM"
>>> result("Cc1cccc(C(C)(C)C)c1NCc1nc(-c2ccc(F)cc2)c(-c2nc(C(=O)NC(C)C)cs2)o1")
"> 1 µM"

---

# maps each entry to its IC50
- SYSTEM_UNDER_TEST: active p38 alpha enzyme (Upstate Biotechnology) (Homo sapiens)
- Construct: purchased Upstate Biotechnology
- PROTOCOL_DESCRIPTION: p38α biochemical assay (ATP turnover, luminescent detection, Cambrex PKlight)
- MEASUREMENT_PARAMETERS: p38α kinase; Table 1 Biological Activity
MEASURED_PARAMETER: IC50

>>> result("CC(C)NC(=O)c1csc(-c2c(-c3ccc(F)cc3)n[nH]c2C2CCN(C(=O)c3ccc4ccccc4c3O)CC2)n1 [Example 959]")
"> 1000 nM"
>>> result("COc1cccc(CCNCc2nc(-c3ccc(F)cc3)c(-c3nc(C(=O)NC(C)C)cs3)o2)c1 [Example 1143]")
"> 1000 nM"
>>> result("Cc1nc(-c2ccc(F)cc2)c(-c2nc(C(=O)N3CCCC(c4ccc(C(F)(F)F)cc4)C3)cs2)s1 (stereo not drawn) [Example 1954]")
"> 1000 nM"
>>> result("Cc1ccc(NCc2nc(-c3ccc(F)cc3)c(-c3nc(C(=O)NC(C)C)cs3)o2)cc1 [Example 1309]")
"> 1000 nM"
>>> result("CC(C)NC(=O)c1csc(-c2c(-c3ccc(F)cc3)c(=O)[nH]n2C)n1 [Example 2182]")
"> 1000 nM"
>>> result("CC(C)NC(=O)c1csc(-c2c(-c3ccc(F)cc3)n[nH]c2C2CCN(C(=O)c3ccnc(Cl)c3)CC2)n1 [Example 868]")
"≤ 1000 nM"
>>> result("Cc1nc(-c2ccc(F)cc2)c(-c2nc(C(=O)NCc3ccccc3)cs2)s1 [Example 1739]")
"≤ 1000 nM"
>>> result("CC(C)CCCC(C)NCc1nc(-c2ccc(F)cc2)c(-c2nc(C(=O)NC(C)C)cs2)o1 (stereo not drawn) [Example 1109]")
"> 1000 nM"
>>> result("Cc1cccc(CNC(=O)c2csc(-c3sc(C)nc3-c3ccc(F)cc3)n2)c1 [Example 1751]")
"≤ 1000 nM"
>>> result("Cc1nc(-c2ccc(F)cc2)c(-c2nc(C(=O)Nc3cc(C(F)(F)F)ccc3F)cs2)s1 [Example 2014]")
"> 1000 nM"
>>> result("CC(C)NC(=O)c1csc(-c2c(-c3ccc(F)cc3)n[nH]c2C2CCN(C(=O)c3cc(F)c(F)cc3[N+](=O)[O-])CC2)n1 [Example 992]")
"> 1000 nM"
>>> result("CC(C)NC(=O)c1csc(-c2c(-c3ccc(F)cc3)noc2CN2CCC(O)(O)CC2)n1 [Example 1561]")
"> 1000 nM"
>>> result("COc1ccc(N2CCN(C(=O)c3csc(-c4sc(C)nc4-c4ccc(F)cc4)n3)CC2)cc1OC [Example 1953]")
"> 1000 nM"
>>> result("COc1ccccc1CNC(=O)c1csc(-c2c(-c3ccc(F)cc3)n[nH]c2C2CCNCC2)n1 [Example 2101]")
"> 1000 nM"
>>> result("COc1ccccc1N1CCN(Cc2nc(-c3ccc(F)cc3)c(-c3nc(C(=O)NC(C)C)cs3)o2)CC1 [Example 1270]")
"> 1000 nM"
>>> result("CC(C)NC(=O)c1csc(-c2c(-c3ccc(F)cc3)noc2CNCc2ccc(C(F)(F)F)cc2)n1 [Example 1493]")
"> 1000 nM"
>>> result("Cc1nc(-c2ccc(F)cc2)c(-c2nc(C(=O)N(Cc3cccnc3)Cc3cccnc3)cs2)s1 [Example 1928]")
"> 1000 nM"
>>> result("Cc1c(F)cccc1NCc1onc(-c2ccc(F)cc2)c1-c1nc(C(=O)NC(C)C)cs1 [Example 1652]")
"> 1000 nM"
>>> result("CC(C)NC(=O)c1csc(-c2c(-c3ccc(F)cc3)noc2CNc2ccc(OC(F)(F)F)cc2)n1 [Example 1686]")
"> 1000 nM"
>>> result("CCC(C)CNC(=O)c1csc(-c2sc(C)nc2-c2ccc(F)cc2)n1 (stereo not drawn) [Example 1723]")
"> 1000 nM"
>>> result("O=C(NCCN1CCCC1)c1csc(-c2c(-c3ccc(F)cc3)n[nH]c2C2CCNCC2)n1 [Example 2070]")
"> 1000 nM"
>>> result("CC(C)NC(=O)c1csc(-c2c(-c3ccc(F)cc3)n[nH]c2C2CCN(C(=O)c3ccc(Cl)c([N+](=O)[O-])c3)CC2)n1 [Example 988]")
"≤ 1000 nM"
>>> result("Cc1nc(-c2ccc(F)cc2)c(-c2nc(C(=O)NC(CO)C(C)C)cs2)s1 (stereo not drawn) [Example 1738]")
"≤ 1000 nM"
>>> result("CC(C)CN(C)Cc1nc(-c2ccc(F)cc2)c(-c2nc(C(=O)NC(C)C)cs2)o1 [Example 1192]")
"> 1000 nM"
>>> result("Cc1nc(-c2ccc(F)cc2)c(-c2nc(C(=O)NCCN3CCOCC3)cs2)s1 [Example 1765]")
"> 1000 nM"
>>> result("Cc1ccc(SCC(=O)N2CCC(c3[nH]nc(-c4ccc(F)cc4)c3-c3nc(C(=O)NC(C)C)cs3)CC2)cc1 [Example 943]")
"> 1000 nM"
>>> result("Cc1c(C(=O)N2CCC(c3[nH]nc(-c4ccc(F)cc4)c3-c3nc(C(=O)NC(C)C)cs3)CC2)oc2ccccc12 [Example 916]")
"≤ 1000 nM"
>>> result("N#CCCNC(=O)c1csc(-c2c(-c3ccc(F)cc3)n[nH]c2C2CCNCC2)n1 [Example 2037]")
"> 1000 nM"
>>> result("CC(C)NC(=O)c1csc(-c2oc(CNc3ccccc3C(=O)c3ccccc3)nc2-c2ccc(F)cc2)n1 [Example 1368]")
"> 1000 nM"
>>> result("CC(C)c1ccc(CNC(=O)c2csc(-c3c(-c4ccc(F)cc4)n[nH]c3C3CCNCC3)n2)cc1 [Example 2118]")
"> 1000 nM"
